- Measured Target: Cytochrome P450 11B2, mitochondrial (Homo sapiens)
- Sequence (P19099 whole entry): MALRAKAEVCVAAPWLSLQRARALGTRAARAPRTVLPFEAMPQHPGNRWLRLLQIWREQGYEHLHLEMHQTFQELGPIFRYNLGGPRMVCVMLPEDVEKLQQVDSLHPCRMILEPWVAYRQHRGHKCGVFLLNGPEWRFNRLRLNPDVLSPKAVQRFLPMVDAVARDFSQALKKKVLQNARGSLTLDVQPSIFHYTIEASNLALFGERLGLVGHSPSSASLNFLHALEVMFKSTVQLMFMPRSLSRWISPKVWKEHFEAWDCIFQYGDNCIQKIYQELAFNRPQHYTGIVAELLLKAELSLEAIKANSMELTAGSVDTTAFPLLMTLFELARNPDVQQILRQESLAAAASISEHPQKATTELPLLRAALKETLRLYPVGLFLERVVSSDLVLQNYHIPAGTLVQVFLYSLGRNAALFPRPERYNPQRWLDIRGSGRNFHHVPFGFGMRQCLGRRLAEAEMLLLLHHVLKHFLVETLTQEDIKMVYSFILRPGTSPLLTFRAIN
Across several publications, the following IC50 results were reported for Cytochrome P450 11B2, mitochondrial (Homo sapiens).

Here are 3 compounds together with their reported answers.
{"columns": ["Compound", "Observed Result"],
 "data": [
  ["COc1ccccc1[S+]([O-])c1c(O)c(-c2cccnc2)cc2ccccc12 (centres undefined)", "64 nM"],
  ["c1cncc(-c2ccc3c4c(cccc24)CC3)c1", "14 nM"],
  ["CC(=O)N1CCc2cc(-c3cncc(F)c3)ccc21", "61 nM"]
]}

// next item, IC50 requested
Look up IC50: O=[N+]([O-])c1ccc(-c2ccncc2)c(OCc2ccccc2)c1
87 nM

###

- Measured Target: Cytochrome P450 11B2, mitochondrial (Homo sapiens, UniProt P19099)
- Sequence (P19099 whole entry): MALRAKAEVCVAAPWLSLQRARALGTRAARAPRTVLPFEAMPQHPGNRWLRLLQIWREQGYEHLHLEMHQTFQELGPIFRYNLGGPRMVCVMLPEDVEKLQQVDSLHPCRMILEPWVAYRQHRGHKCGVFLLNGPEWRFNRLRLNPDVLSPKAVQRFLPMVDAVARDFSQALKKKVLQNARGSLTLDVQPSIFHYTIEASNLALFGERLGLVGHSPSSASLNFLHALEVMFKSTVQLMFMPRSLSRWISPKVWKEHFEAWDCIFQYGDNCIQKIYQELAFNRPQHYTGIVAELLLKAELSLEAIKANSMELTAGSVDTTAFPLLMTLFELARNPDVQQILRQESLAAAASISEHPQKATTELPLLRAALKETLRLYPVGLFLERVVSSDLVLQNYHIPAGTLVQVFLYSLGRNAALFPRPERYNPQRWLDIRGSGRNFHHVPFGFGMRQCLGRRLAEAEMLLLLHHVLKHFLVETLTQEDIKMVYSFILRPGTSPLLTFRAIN
Across several publications, the following IC50 results were reported for Cytochrome P450 11B2, mitochondrial (Homo sapiens, UniProt P19099).
Strictly below 10 nM in IC50: y. Otherwise: n.

See these solved cases before continuing.
{"columns": ["Molecule", "Answer Label"],
 "data": [
  ["[O-][S+](c1ccccc1OC(F)(F)F)c1c(O)c(-c2cccnc2)cc2ccccc12 (stereo unspecified)", "n"],
  ["O=[N+]([O-])c1ccc(Cc2cccnc2)c(OCCc2ccccc2)c1", "n"],
  ["COc1cncc(C2=Cc3ccc(OC)cc3CC2C)c1 (stereo unspecified)", "y"]
]}

Determine if CCC(=O)NC1CCCc2c(-c3ccc(Cl)c(F)c3)cncc21 (racemic) shows IC50 strictly lower than 10 nM.
n

Follow-up item: N#Cc1ccc2c(c1)CCC(c1cccnc1)=C2
y

Follow-up item: N#Cc1ccc(-c2ccncc2)c(OCCc2ccccc2)c1
n

Follow-up item: [O-][S+](c1ccc(Cl)c(Cl)c1)c1c(O)c(-c2cccnc2)cc2ccccc12 (stereo unspecified)
n

Follow-up item: N#Cc1ccc(S(=O)(=O)N2CCCc3cc(-c4cccnc4)ccc32)cc1
n

Follow-up item: C1=C(n2ccnc2)CCc2ccccc21
n

Follow-up item: O=S(=O)(c1cccc(Cl)c1)N1CCCc2cc(-c3cccnc3)ccc21
n

Follow-up item: O=C1CCc2cc(-c3cccnc3)ccc2C1
y
